molecule	melting point
CN1Cc2cccnc2N(c2cccc(F)c2)C1=O	189 to 192 °C
Cc1nnc(-c2ccnc(NC(=O)NCc3ccccn3)c2)o1	202 to 203 °C
O=C(NCC/C=C/CCCNC(=O)c1ccc(OC(F)F)cc1)c1ccc(OC(F)F)cc1	122 to 123 °C
CC(C)NC(=O)NCCn1c(CO)nc2c(N)nc3ccccc3c21	> 240 °C
Cc1ccc(Nc2nc(-c3ccc(-c4ccccn4)s3)cs2)nc1	197 to 199 °C
COc1c(NC(=O)c2ccc(C)c(-n3cc(C(=O)NCC4CCN(C)CC4)nn3)c2)cc(C(C)(C)C)cc1NS(C)(=O)=O	202 to 203 °C
COc1cc(OC)nc(Sc2c([N+](=O)[O-])c(C)nn2C)n1	124 to 125 °C
CS(=O)(=O)Nc1ccc(CCC(=O)O)cc1	152 to 154 °C
CCC(=O)N1CCC(NC(=O)Nc2cccc(C(F)(F)F)c2)CC1	153 to 154 °C
CC1CCc2[nH]c3ccc(Br)cc3c2C1 (stereo not given)	108 to 110 °C

* * *

compound	melting point
OCCN(Cc1ccccc1)CC1(O)CCN(CCCc2c[nH]c3ccc(-n4cnnc4)cc23)CC1	75 to 78 °C
N#CNc1ccccc1N1CCOCC1	175 to 176 °C
Cc1ccc(S(=O)(=O)Nc2nc(-c3cc(F)cc(C(F)(F)F)c3)cs2)cc1	123 to 125 °C
COc1cc(C=CC(=O)Nc2cnc3ccc(C)cc3c2-c2ccccc2Br)cc(OC)c1OC(C)=O	238 to 240 °C
COc1ccc(C2OC(=O)NC2C)cc1OC (stereo not given)	98 to 99 °C
CCN(CC)C(=O)c1nc(C)c(-c2ccncc2)s1	87.5 to 89 °C
CCCCCCCOc1ccc(C(=O)Nc2ccccc2O)cc1	131 to 133 °C
CN1c2ccccc2Sc2c(C=O)cccc21	103 °C
O=C(O)COCCc1ccc(F)cc1	82 to 85 °C
O=C(NCCCCCCOC(=O)N1CCC2(CCCC2)CC1)OC1CCN(C(=O)Oc2ccc([N+](=O)[O-])cc2)CC1	113 to 114 °C

* * *

property: melting point

compound	obs-value
CCCSc1sc(C(=O)OCC)c2c1-c1nn(C)cc1CC2	90 to 91 °C
CSc1nn(C(=O)NC2CCCCC2)c(=O)n1C	136 °C
CNC(=O)c1cc(N2CCN(C)CC2)ncc1Br	122 to 125 °C
COC(=S)CCc1cc(Oc2ccc(C(F)(F)F)cc2Cl)ccc1[N+](=O)[O-]	61 to 63 °C
CCNc1nc2cccc(C(=O)O)c2n1Cc1ccc(-c2ccccc2-c2nnn[nH]2)cc1	240 to 242 °C
Nc1ccc2c(c1)S(=O)(=O)NCCO2	179 °C
CCCCC(=O)c1c(-c2ccc3c(Br)c(OCC(=O)O)ccc3c2)sc2ccccc12	164 to 165 °C
CCOC(=O)C(Cl)=Cc1cc(Cl)ccc1-n1c(=O)c(Cl)c(C(F)(F)F)n(C)c1=O	160 to 164 °C
N#Cc1ccnc(N2CCOCC2)c1	135 to 136 °C
O=C(CCC(=O)N(CCO)CCO)c1ccccc1	98 °C
CCCCOC(=O)[C@H]1CN(c2cc(F)c(C3CCSCC3)c(F)c2)C(=O)O1	86 to 89 °C
CCn1c2ccccc2c2cc(OC)c(C#N)cc21	145 to 155 °C
CC(C)C(C)NC1=NS(=O)(=O)c2cc([N+](=O)[O-])ccc2N1 (stereo unspecified)	308 to 311 °C
Cc1oc(-c2ccccc2)nc1C(=O)NN	144 to 146 °C
COc1cc2c(cc1Nc1ncc(Cl)c(N[C@H]3[C@@H](C(N)=O)[C@@H]4C=C[C@H]3C4)n1)NCCN(CC1CC1)C2	149 to 151 °C
COC(=O)CCc1ccc(NC(=O)OC(C)(C)C)cc1	72 to 73.5 °C
CCCc1nc(C(C)(C)O)c(C(=O)OCC)n1Cc1ccc(-c2ccccc2C(=O)OC(C)(C)C)cc1	90 to 91 °C
CCCOc1ccc(S(=O)(=O)N2CCCC(C(=O)OCC)C2)cc1-c1nc2cc(Cl)c([N+](=O)[O-])cc2c(=O)[nH]1 (stereo unspecified)	196 to 197 °C
CCCOc1ccc(-c2ccc3c(c2)C=C(C(=O)O)CCN3C=O)cc1	215 to 217 °C
NC(=O)c1c(F)cccc1C(=O)O	129 to 132 °C
O=C(CC1CSCCC1=O)c1ccc(Cl)cc1 (stereo unspecified)	78 to 81 °C
